Value source: ChEMBL document CHEMBL4689842

system: U2OS; assay: Incucyte cell viability with U2OS; assay type: toxicity, cell-based; conditions: human, 12 h, 10 µM, compound concentration 10 uM, replicate number 2, timepoint 12 hours; note: filed as whole numbers so only -1 and 0 and 1 occur
Quantity name: Growth Rate
No unit in the answer, please; the number alone is enough.

Compound | Quantity name | Observed result
FC(F)(F)c1c(N2CCC(c3ccccc3)CC2)ccn2c(CC3CC3)nnc12 | Growth Rate | 1
CCc1cc2c(cc1CC)CC(NC[C@H](O)c1ccc(O)c3[nH]c(=O)ccc13)C2 [INDACATEROL] | Growth Rate | 0
Cc1cccc(NC(=O)N[C@@H]2N=C(c3ccccc3)c3ccccc3N(C)C2=O)c1 [L-365260] | Growth Rate | 0

Value of Growth Rate reported for the compound Cc1cc(C(=O)N2Cc3cnn(C)c3Nc3ccccc32)ccc1CNC(=O)N1CCC[C@H]1C(=S)N1CCCN(C)CC1 is 1

Value of Growth Rate reported for the compound Cc1cc(NC(=O)Nc2ccc(N(C)C)cc2)c2cc(F)cc(F)c2n1 is 1

Value of Growth Rate reported for the compound CN1C(=O)[C@@H](N2CCc3c(nn(Cc4ccccc4)c3Br)C2=O)COc2ccccc21 [TP-030-2] is 1

Value of Growth Rate reported for the compound CNc1cc2[nH]c(=O)n(-c3ccc(NC(=O)NS(=O)(=O)c4ccc(Cl)s4)cc3)c(=O)c2cc1F [ELINOGREL] is 1

Value of Growth Rate reported for the compound O=C(NCc1ccc(F)cc1)C1CCN(S(=O)(=O)c2cc(Cl)cc(Cl)c2)CC1 is 0
